Where these numbers come from: PubChem BioAssay AID1159580

- method: chemical genetic growth profiling, strain panel (AID 1159580);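 note: tested at 20 µM; growth read once vehicle control cultures reached saturation at 30 °C; 1 = growth at the plate median or of vehicle wells; lower values mean less growth of the strain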
- condition info: S. cerevisiae deletion strains, growth OD, locus YLR027C, strain aat2
Hit rate of the full screen: of about 5,500 compounds, about 2,000 (36%) were called active. Inconclusive results (about 18%) are left out. Cut-off read from the data, not from the text of the source: active = normalized growth mostly below about 0.91 (no sharp cut-off); inconclusive = no clear call, values can overlap the other calls; inactive = mostly above about 0.92. The list shows a part of the results.
Possible outcomes: active, inactive

COc1cc(O)c2c(=O)cc(C)oc2c1CC=C(C)C : inactive
CC(=O)O[C@@](C)(CCC=C(C)C)C1CC=C(C)CC1 (some centres undefined) : inactive
OCc1ccccc1O[C@@H]1O[C@H](CO)[C@@H](O)[C@H](O)[C@H]1O : inactive
COc1c(O)cc2oc3cc(O)c(CC=C(C)C)c(O)c3c(=O)c2c1CC=C(C)C : active
CN1C2CC3C[C@H]1C(O3)C2O (some centres undefined) : inactive
Cc1ccc2c(c1)CC[C@H]1CC(=O)CC[C@]21C : inactive
CC(=O)O[C@]1(C(C)=O)CCC2C3C=C(Cl)C4=CC(=O)CC[C@]4(C)C3CC[C@@]21C (some centres undefined) : inactive
C1CCc2nnnn2CC1 : inactive
C=CC1=C(C(=O)O)N2C(=O)[C@@H](NC(=O)/C(=N/O)c3csc(N)n3)[C@H]2SC1 : inactive
CN1CCc2cc3c(cc2C1O)OCO3 (centres undefined) : inactive
O=C(O)COc1cc(Cl)c(Cl)cc1Cl : inactive
Cc1cccc(Nc2cc(Cl)nc(SCC(=O)O)n2)c1C : inactive
CC1(C)S[C@@H]2[C@H](NC(=O)[C@H](NC(=O)N3CCNC3=O)c3ccccc3)C(=O)N2C1C(=O)O (some centres undefined) : inactive
COc1ccc2c(c1)[C@@]1(C)CCC(=O)C[C@H]1CC2 : inactive
Cc1ccc(O)cc1 : inactive
CC(=O)O[C@]1(C(C)=O)CCC2C3C=C(C)C4=CC(=O)CCC4(C)C3CCC21C (some centres undefined) : active
Cc1cc(=O)c2c(O)c(C)c(O)cc2o1 : inactive
COC(=O)C1=COC(OC2OC(CO)C(O)C(O)C2O)C2C(C)CC(=O)C12O (centres undefined) : inactive
O=[N+]([O-])O[C@H]1CO[C@H]2[C@@H]1OC[C@H]2O[N+](=O)[O-] : inactive
CCC(C(=O)O)c1ccccc1 (centres undefined) : inactive
CC(=O)CC(=O)CCC(=O)O : inactive
O=C(O)c1cc(=O)c2ccc(Cl)cc2[nH]1 : inactive
CC(=O)O[C@]1(C(C)=O)CCC2C3C[C@H](C)C4=CC(=O)CC[C@]4(C)C3CC[C@@]21C (some centres undefined) : inactive
CC[C@@H](CO)NCCN[C@@H](CC)CO : inactive

---

- method: chemical genetic growth profiling, strain panel (AID 1159580)
- condition info: S. cerevisiae deletion strains, growth OD, locus YLR258W, strain gsy2
Out of some 5,500 compounds screened, about 2,000 (36%) were called active. Not shown: some 18% with an inconclusive outcome. Cut-off read from the data, not from the text of the source: active = normalized growth mostly below about 0.91 (no sharp cut-off); inconclusive = no clear call, values can overlap the other calls; inactive = mostly above about 0.92. The list shows a part of the results.
Possible outcomes: 1 = active, 0 = inactive

COc1cc2c(cc1OC)C(=O)C(CC1CCN(Cc3ccccc3)CC1)C2 (configuration not stated) : 0
C[CH2][Hg][S]c1ccccc1C(=O)O : 1
Cc1cc(=O)c2c(O)c(C)c(O)cc2o1 : 0
N#Cc1c(Cl)c(Cl)c(Cl)c(C#N)c1Cl : 1
NC(N)=NOCC[C@H](N)C(=O)O : 0
C[N+](C)(C)CCOP(=O)([O-])OP(=O)(O)OC[C@H]1OC(n2ccc(N)nc2=O)[C@H](O)[C@@H]1O (some centres not stated) : 0
OCC(O)Cc1ccc2c(c1)OCO2 (configuration not stated) : 0
C=C1CC[C@H](O)C/C1=C/C=C1\CCC[C@]2(C)C([C@H](C)/C=C/[C@H](C)C(C)C)CC[C@@H]12 (some centres not stated) : 0
CCCCCCCC/C=C/CCCCCCCCOP(=O)([O-])OCC[N+](C)(C)C : 1
C=CC1=C(C(=O)O)N2C(=O)[C@@H](NC(=O)/C(=N/O)c3csc(N)n3)[C@H]2SC1 : 0
COc1cccc([C@]2(O)CCCC[C@H]2CN(C)C)c1 : 0
COc1ccc(C[C@H]2NC[C@H](O)[C@H]2OC(C)=O)cc1 : 1
CCCCCC(=O)O[C@]1(C(C)=O)CCC2C3CCC4=CC(=O)CC[C@]4(C)C3CC[C@@]21C (some centres not stated) : 0
CC(C)N(C(=O)CCl)c1ccccc1 : 0
CO[C@H]1C[C@H](O[C@H]2[C@H](C)[C@@H](OC3O[C@H](C)C[C@H](N(C)C)[C@H]3O)[C@@H](C)C[C@]3(CO3)C(=O)[C@H](C)[C@@H](O)[C@@H](C)[C@@H](C)OC(=O)[C@@H]2C)O[C@@H](C)[C@@H]1O (some centres not stated) : 0
C=CCc1ccc2c(c1)OCO2 : 0
COc1cc(O)c2c(=O)cc(C)oc2c1CC=C(C)C : 0
CN1C2CC3C[C@H]1C(O3)C2O (some centres not stated) : 0
CC(C)=CCc1c(O)cc2oc(C)cc(=O)c2c1O : 0
CCc1ccc(CCOc2ccc(CC3SC(=O)NC3=O)cc2)nc1 (configuration not stated) : 0
COc1c(O)cc2oc3cc(O)c(CC=C(C)C)c(O)c3c(=O)c2c1CC=C(C)C : 0
Cc1cc(=O)c2c(O)cc(O)c(C)c2o1 : 0

---

normalized growth listing for selected compounds.
- method: chemical genetic growth profiling, strain panel (AID 1159580);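 note: tested at 20 µM; growth read once vehicle control cultures reached saturation at 30 °C; 1 = growth at the plate median or of vehicle wells; lower values mean less growth of the strain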
- condition info: S. cerevisiae deletion strains, growth OD, locus YGR078C, strain PAC10, hits give low values
In all, about 5,500 compounds went through this assay and about 2,000 (36%) were called active. Roughly 18% stayed inconclusive and do not appear here. This is one part of the list.
quantity measured: normalized growth

OCc1ccccc1O[C@@H]1O[C@H](CO)[C@@H](O)[C@H](O)[C@H]1O : 0.97
COc1cc(C(O)C(=O)O)ccc1O (centres undefined) : 1
COc1ccc(C(=O)c2ccccc2O)c(O)c1 : 0.903
COc1ccc(OC)c(C(=O)c2cc(OC)c(OC)c(OC)c2)c1 : 1

---

- method: chemical genetic growth profiling, strain panel (AID 1159580);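 note: tested at 20 µM; growth read once vehicle control cultures reached saturation at 30 °C; 1 = growth at the plate median or of vehicle wells; lower values mean less growth of the strain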
- condition info: S. cerevisiae deletion strains, growth OD, locus YDR162C, strain NBP2, hits give low values
About 2,000 (36%) of roughly 5,500 compounds were called active. Roughly 18% stayed inconclusive and do not appear here. The list shows a part of the results.
normalized growth listing for selected compounds.
quantity measured: normalized growth

c1ccc(CN(CC2=NCCN2)c2ccccc2)cc1 : 1.03
NC/C=C/C(=O)O : 0.986
S=C=NCc1ccccc1 : 0.0541
COc1c(O)cc2oc3cc(O)c(CC=C(C)C)c(O)c3c(=O)c2c1CC=C(C)C : 0.543
COc1cc(O)c2c(=O)cc(C)oc2c1CC=C(C)C : 0.696
CC(C(=O)O)c1ccc2c(c1)[nH]c1ccc(Cl)cc12 (configuration not stated) : 1.02
Cc1cc(=O)c2c(O)cc(O)c(C)c2o1 : 1.03

---

- method: chemical genetic growth profiling, strain panel (AID 1159580);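 note: tested at 20 µM; growth read once vehicle control cultures reached saturation at 30 °C; 1 = growth at the plate median or of vehicle wells; lower values mean less growth of the strain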
- condition info: S. cerevisiae deletion strains, growth OD, strain TSCII
In all, about 5,500 compounds went through this assay and about 2,000 (36%) were called active. About 18% were inconclusive and are not listed. Cut-off read from the data, not from the text of the source: active = normalized growth mostly below about 0.91 (no sharp cut-off); inconclusive = no clear call, values can overlap the other calls; inactive = mostly above about 0.92. This is one part of the list.
Possible outcomes: TRUE (active), FALSE (inactive)

Cc1cc(SCc2[nH]nc3oc(=O)cc(C)c23)c(Cl)cc1Cl : FALSE
O=C(NCc1ccco1)c1ccc(Oc2cc(Cl)cc(Cl)c2)o1 : FALSE
Cc1oc2c(F)c(F)c(F)c(F)c2c1C(=O)ONC(N)c1ccc(OS(=O)(=O)N(C)C)cc1 (centres undefined) : FALSE
N#Cc1c(Cl)c(Cl)c(Cl)c(Cl)c1C#N : TRUE
C/C(=N/NC(N)=S)c1ccc(Oc2c(Cl)cncc2Cl)cc1 : FALSE
O=C(CCN1CCCCC1)c1ccc(-c2ccccc2)cc1 : FALSE
O=C(Nc1c(Br)c(C2CC2)nn1-c1ccccc1)C(Cl)(Cl)Cl : FALSE
CCC(C)c1ccccc1NC(=O)c1cc2cccc([N+](=O)[O-])c2[nH]1 (centres undefined) : FALSE
NCCCN=c1ccc2c3c1c(O)c1c(O)ccc(=O)c1c3[nH]n2CCNCCO : FALSE
Cc1c(Cl)cccc1NC(=S)N1CCCN(c2ccc(C(F)(F)F)cc2[N+](=O)[O-])CC1 : FALSE
Cc1ccccc1C(=O)N1CCc2c([nH]c3ccccc23)C1C(F)(F)F (centres undefined) : FALSE
Cc1c(Cl)cccc1NC(=S)N1CCCN(c2nc3ccc(Cl)cc3s2)CC1 : FALSE
O=C(Nc1cc(Cl)cc(Cl)c1)Nc1cc(-c2cccs2)[nH]n1 : FALSE
O=C(C=C(O)c1ccc(Br)cc1)C(=O)Nc1ccccc1 : TRUE
N#C/C(=N/Nc1ccccc1Cl)S(=O)(=O)c1ccc(Cl)cc1 : FALSE
N#C/C(=C\c1ccccc1Sc1ccc(Cl)cc1)S(=O)(=O)c1ccccn1 : FALSE
COc1ccc(NC(=O)O/N=C(/N)c2ccc(Oc3c(Cl)cncc3Cl)cc2)cc1 : FALSE
C=CC(=O)N1CCc2cc([N+](=O)[O-])ccc21 : TRUE
CC1=CC(=O)C(CCOCCC2=CC(=O)C(C)=CC2=O)=CC1=O : FALSE
